- assay.system: MOPr (Homo sapiens, UniProt P35372)
- Sequence (P35372 whole entry): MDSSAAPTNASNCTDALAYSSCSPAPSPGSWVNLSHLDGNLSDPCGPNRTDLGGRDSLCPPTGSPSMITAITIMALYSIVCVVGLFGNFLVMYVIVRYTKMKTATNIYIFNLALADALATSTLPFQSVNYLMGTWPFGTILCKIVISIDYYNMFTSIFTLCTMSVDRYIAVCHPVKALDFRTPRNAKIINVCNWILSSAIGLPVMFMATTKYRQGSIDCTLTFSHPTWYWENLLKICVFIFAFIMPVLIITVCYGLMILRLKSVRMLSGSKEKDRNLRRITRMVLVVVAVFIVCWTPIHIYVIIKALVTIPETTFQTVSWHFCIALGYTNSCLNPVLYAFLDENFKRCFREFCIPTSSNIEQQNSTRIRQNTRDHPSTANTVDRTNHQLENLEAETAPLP
- protocol.description: [35S]GTPγS binding, CHO membranes, standard DAMGO
- Format: biochemical
- condition.summary: Ke/nM MOPr, antagonist Ke versus DAMGO, single agonist concentration
property.label: log10 Kd (log10 of the value in nM)

item.smiles: O=C1[C@@H](CCO)CC2=C([C@@H]3Oc4c(O)ccc5c4[C@@]34CCN(CC3CC3)[C@H](C5)[C@]4(O)C2)N1Cc1ccccc1
property.label: log10 Kd
number: 0.21

item.smiles: C[C@@H]1CC2=C([C@@H]3Oc4c(O)ccc5c4[C@@]34CCN(CC3CC3)[C@H](C5)[C@]4(O)C2)N(Cc2ccccc2)C1=O
property.label: log10 Kd
number: -0.30

item.smiles: C[C@H]1CC2=C([C@@H]3Oc4c(O)ccc5c4[C@@]34CCN(CC3CC3)[C@H](C5)[C@]4(O)C2)N(Cc2ccccc2)C1=O
property.label: log10 Kd
number: -0.22

item.smiles: O=C1[C@H](CCO)CC2=C([C@@H]3Oc4c(O)ccc5c4[C@@]34CCN(CC3CC3)[C@H](C5)[C@]4(O)C2)N1Cc1ccccc1
property.label: log10 Kd
number: -0.46

item.smiles: O=C1CCC2=C([C@@H]3Oc4c(O)ccc5c4[C@@]34CCN(CC3CC3)[C@H](C5)[C@]4(O)C2)N1Cc1ccccc1
property.label: log10 Kd
number: -0.70

item.smiles: CN1CC[C@]23c4c5ccc(O)c4O[C@H]2C2=C(C[C@@H](CCO)C(=O)N2Cc2ccccc2)C[C@@]3(O)[C@H]1C5
property.label: log10 Kd
number: 1.52

item.smiles: CCOC(=O)Cc1c2c(n(Cc3ccccc3)c1O)[C@@H]1Oc3c(O)ccc4c3[C@@]13CCN(CC1CC1)[C@H](C4)[C@]3(O)C2
property.label: log10 Kd
number: 0.82

item.smiles: O=C1CCC2=C([C@@H]3Oc4c(O)ccc5c4[C@@]34CCN(CC3CC3)[C@H](C5)[C@]4(O)C2)N1CC1CCCCC1
property.label: log10 Kd
number: -0.57

====

Kd listing for selected molecules.
- assay.system: DOPr (Homo sapiens, UniProt P41143)
- Sequence (P41143 whole entry): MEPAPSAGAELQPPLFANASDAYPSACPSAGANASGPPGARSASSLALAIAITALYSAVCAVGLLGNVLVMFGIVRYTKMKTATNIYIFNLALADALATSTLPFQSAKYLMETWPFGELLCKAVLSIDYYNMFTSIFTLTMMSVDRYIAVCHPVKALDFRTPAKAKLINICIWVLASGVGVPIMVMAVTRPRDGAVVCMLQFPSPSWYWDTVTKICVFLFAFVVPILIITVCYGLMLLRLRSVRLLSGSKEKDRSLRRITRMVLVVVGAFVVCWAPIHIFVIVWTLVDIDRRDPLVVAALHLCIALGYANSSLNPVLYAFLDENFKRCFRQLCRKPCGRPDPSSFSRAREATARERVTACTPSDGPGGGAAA
- protocol.description: [35S]GTPγS binding, CHO membranes, standard DPDPE
- Type: biochemical
- condition.summary: Ke/nM DOPr, antagonist Ke versus DPDPE, single agonist concentration

molecule: O=C1[C@@H](CCO)CC2=C([C@@H]3Oc4c(O)ccc5c4[C@@]34CCN(CC3CC3)[C@H](C5)[C@]4(O)C2)N1Cc1ccccc1 [5j]
assay.system: DOPr (Homo sapiens, UniProt P41143)
Kd / nM: 0.93
--
molecule: C[C@@H]1CC2=C([C@@H]3Oc4c(O)ccc5c4[C@@]34CCN(CC3CC3)[C@H](C5)[C@]4(O)C2)N(Cc2ccccc2)C1=O [5g]
assay.system: DOPr (Homo sapiens, UniProt P41143)
Kd / nM: 0.23
--
molecule: CCOC(=O)Cc1c2c(n(Cc3ccccc3)c1O)[C@@H]1Oc3c(O)ccc4c3[C@@]13CCN(CC1CC1)[C@H](C4)[C@]3(O)C2 [4b]
assay.system: DOPr (Homo sapiens, UniProt P41143)
Kd / nM: 6.79
--
molecule: O=C1[C@H](CCO)CC2=C([C@@H]3Oc4c(O)ccc5c4[C@@]34CCN(CC3CC3)[C@H](C5)[C@]4(O)C2)N1Cc1ccccc1 [5i]
assay.system: DOPr (Homo sapiens, UniProt P41143)
Kd / nM: 0.47
--
molecule: C[C@H]1CC2=C([C@@H]3Oc4c(O)ccc5c4[C@@]34CCN(CC3CC3)[C@H](C5)[C@]4(O)C2)N(Cc2ccccc2)C1=O [5h]
assay.system: DOPr (Homo sapiens, UniProt P41143)
Kd / nM: 0.57
